# assay_details: Human HepG2 cell viability assay in 384 well format
# Assay type: toxicity, cell-based
# Set-up: dose 125 nL, time 70.5 hour; concentration not given beside the values
# measurement_parameters: HepG2 cells, read-out: Inhibition
Assignment: determine reported cytotoxicity at 70.5 h for the given compounds.
Numbers only, in %.

Record excerpt, results attached:
CN(C)[C@H]1CCCCN(C(=O)COCc2nc3cc(F)ccc3[nH]2)C1: 15
Cc1cccc(COc2ccc(C(C)N)cc2)c1 (stereo unspecified): -4.64
CCc1nc(C)c([C@H]2CN(C)C[C@@H]2C(=O)Nc2cccc3cn[nH]c23)[nH]1: -5.72
CCOCc1ccccc1NC(=O)NC1CCN(c2ccccc2)C1 (stereo unspecified): -4.36
CCc1nnc(C(C)N2CCC(NC(=O)C3CCCCC3)CC2)o1 (stereo unspecified): -7.39

Look up cytotoxicity at 70.5 h of Cc1cc(C(=O)N2CCCC2Cn2nc(C)cc2C)on1 (stereo unspecified) and report it.
1.85

###

Assignment: determine reported cytotoxicity at 70.5 h for the given compounds.
# assay_details: Human HepG2 cell viability assay in 384 well format
# Format: toxicity, cell-based
# Set-up: dose 125 nL, time 70.5 hour; concentration not given beside the values
# measurement_parameters: HepG2 cells, read-out: Inhibition

CC1(C)CNC(=O)CN(C(=O)CCc2ccccc2)C1: -3.7%

// batch mode: one cytotoxicity at 70.5 h value per listed entry
1. COCCN(C)C[C@@H]1CCC[C@@H]2CN(c3cc(OC)ncn3)C[C@@H]21
2. Fc1ccccc1-c1noc2c1CN(CCN1CCOCC1)CC2
3. O=C(CC1CC1)N1CCN(Cc2cccnc2)c2ncccc2C1
4. O=C1CCN(C(=O)c2ncoc2-c2ccco2)c2ncccc2N1
5. CCCc1c(C(=O)N2CCN(Cc3ccccn3)CC2)cnn1C
6. Clc1cccc(Cl)c1CN(CCCN1CCOCC1)Cc1cccnc1
7. CSc1[nH]c(=O)c(C(=O)N2CCCC2c2cccs2)cc1C#N (configuration not stated)

1: -4.84%; 2: 7.36%; 3: -9.33%; 4: -9.5%; 5: -14.7%; 6: -11.4%; 7: -2.03%

// batch mode: one cytotoxicity at 70.5 h value per listed entry
1. COCCN(Cc1ccc(F)cc1Cl)C(=O)c1csnn1
2. Cn1c(C2CC2)nc2c1CCN(Cc1nc(-c3ccsc3)no1)C2
3. Cc1ccc(S(=O)(=O)N2CCC(Oc3cccnn3)CC2)c(C)c1
4. COc1cccc(S(=O)(=O)CCN2CCCC2c2ccc[nH]2)c1 (configuration not stated)
5. COCCCN(CCOC)C(=O)Nc1ccccc1-n1cccn1
6. Cn1cnc(S(=O)(=O)NCCCN2CCOCC2)c1Cl

1. -2.37%
2. -10.5%
3. -8.17%
4. -16.8%
5. 2.41%
6. -14.4%

###

# assay_details: Human HepG2 cell viability assay in 384 well format
# Format: toxicity, cell-based
# Parameters: dose 125 nL, time 70.5 hour; concentration not given beside the values
# measurement_parameters: HepG2 cells, read-out: Inhibition
measured_parameter: cytotoxicity at 70.5 h (%)
Give bare numbers, in %.

Record excerpt, results attached:
CC(O)CN1CC2(CCC1=O)CCN(Cc1cc(F)ccc1Cl)CC2 (stereo unspecified): -2.56
CC(C(=O)NC1CC1)S(=O)(=O)Cc1noc(C(C)(C)C)n1 (stereo unspecified): -1.87

// batch mode: one cytotoxicity at 70.5 h value per listed entry
1. Cc1ccc(C(=O)N(C)CCNS(C)(=O)=O)cc1Br
2. O=C(O)c1cc(S(=O)(=O)Nc2ccc(Cl)cc2)cc2c1OCCO2
3. COc1ccc(CN2CCC[C@H]2c2nc(-c3cncnc3N)no2)cc1

[-5.18, -10.1, 12.8]

// batch mode: one cytotoxicity at 70.5 h value per listed entry
1. CC(C)COCC(NC(=O)c1cccnc1)c1ccco1 (stereo unspecified)
2. O=C(CN1CCC[C@@H]1C(=O)O)NCCOc1cccc(C(F)(F)F)c1
3. O=C(O)c1ccnc(-c2ccnc(COc3ccc(Cl)cc3)n2)c1
4. CSc1nc2ccsc2c(=O)n1CC(=O)NC1CCCC1
5. CC(=O)N1N=C(c2cccs2)OC1C(=O)Nc1ccc(C)cc1 (stereo unspecified)

[-9.01, -6.55, -9.69, -6.44, 1.28]

Look up cytotoxicity at 70.5 h of CN(Cc1ccccc1)C(=O)[C@@H]1Cc2[nH]cnc2CN1C and report it.
9.41
